FYI, the data here is from patent US20250288704A1.

Measured tissue uptake at 1 h accompanies every entry in the list below.
assay: Biodistribution in Jurkat tumor-bearing CB-17 SCID mice; assay type: in vivo; details: female, CB-17 SCID, mouse, in vivo, iv, total radioactivity, % iD/g Kidney
Non-standard residues stand in square brackets, D forms with d. Residues, ends and D or L forms follow the SMILES beside them. Groups on a side chain read outwards from the residue. *: point of attachment. DOTA = O=C(O)CN1CCN(CC(=O)O)CCN(CC(=O)*)CCN(CC(=O)O)CC1; dTyr(3-I) = N[C@H](Cc1ccc(O)c(I)c1)C(=O)O; 2Nal = N[C@@H](Cc1ccc2ccccc2c1)C(=O)O; dNMeOrn = CN[C@H](CCCN)C(=O)O; HYNIC = NNc1ccc(C(=O)*)cn1; 4Amb = NCc1ccc(C(=O)O)cc1; 4Abz = Nc1ccc(C(=O)O)cc1; dDap = NC[C@@H](N)C(=O)O

Example entries begin here.
molecule: C[C@@H](NC(=O)[C@@H](CCCNC(=N)N)NC(=O)[C@@H](CN)NC(=O)CN1CCN(CC(=O)O)CCN(CC(=O)O)CCN(CC(=O)O)CC1)C(=O)NCc1ccc(C(=O)NCCC[C@@H]2C(=O)N[C@@H](CCCNC(=N)N)C(=O)N[C@@H](Cc3ccc4ccccc4c3)C(=O)NCC(=O)N[C@H](Cc3ccc(O)c(I)c3)C(=O)N2C)cc1 [CXCR4-DOTA-2 [Lu]] (cyclo([dTyr(3-I)][dNMeOrn]([4Amb-dA-dR-dDap-DOTA])R[2Nal]G))
measured-property: tissue uptake at 1 h
test-value: 15.7 %ID/g

molecule: C[C@@H](NC(=O)[C@@H](CCCNC(=N)N)NC(=O)[C@@H](CN)NC(=O)CCCCCNC(=O)[C@@H](CNC(=O)CN1CCN(CC(=O)O)CCN(CC(=O)O)CCN(CC(=O)O)CC1)NC(=O)CCCCC[N+]1=C(/C=C/C=C/C=C2/N(C)c3ccc(S(=O)(=O)O)cc3C2(C)C)C(C)(C)c2cc(S(=O)(=O)[O-])ccc21)C(=O)Nc1ccc(C(=O)NCCC[C@@H]2C(=O)N[C@@H](CCCNC(=N)N)C(=O)N[C@@H](Cc3ccc4ccccc4c3)C(=O)NCC(=O)N[C@H](Cc3ccc(O)cc3)C(=O)N2C)cc1 [[^natLu]CXCR4-OI-3, metal not drawn]
measured-property: tissue uptake at 1 h
test-value: 35 %ID/g

molecule: C[C@@H](NC(=O)[C@@H](CCCNC(=N)N)NC(=O)[C@@H](CN)NC(=O)CN1CCN(CC(=O)O)CCN(CC(=O)O)CCN(CC(=O)O)CC1)C(=O)Nc1ccc(C(=O)NCCC[C@@H]2C(=O)N[C@@H](CCCNC(=N)N)C(=O)N[C@@H](Cc3ccc4ccccc4c3)C(=O)NCC(=O)N[C@H](Cc3ccc(O)cc3)C(=O)N2C)cc1 [CXCR4-DOTA-3 [Lu]] (cyclo([dY][dNMeOrn]([4Abz-dA-dR-dDap-DOTA])R[2Nal]G))
measured-property: tissue uptake at 1 h
test-value: 14.1 %ID/g

Input: Bench note: what tissue uptake at 1 h did C[C@@H](NC(=O)[C@@H](CCCNC(=N)N)NC(=O)[C@@H](CN)NC(=O)c1ccc(NN)nc1)C(=O)Nc1ccc(C(=O)NCCC[C@@H]2C(=O)N[C@@H](CCCNC(=N)N)C(=O)N[C@@H](Cc3ccc4ccccc4c3)C(=O)NCC(=O)N[C@H](Cc3ccc(O)cc3)C(=O)N2C)cc1 [Tc-CXCR4-13] (cyclo([dY][dNMeOrn]([4Abz-dA-dR-dDap-HYNIC])R[2Nal]G)) show?
Output: 29.5 %ID/g

Input: How about C[C@@H](NC(=O)[C@@H](CCCNC(=N)N)NC(=O)[C@@H](CN)NC(=O)CN1CCN(CC(=O)O)CCN(CC(=O)O)CCN(CC(=O)O)CC1)C(=O)Nc1ccc(C(=O)NCCC[C@@H]2C(=O)N[C@@H](CCCNC(=N)N)C(=O)N[C@@H](Cc3ccc4ccccc4c3)C(=O)NCC(=O)N[C@H](Cc3ccc(O)c(I)c3)C(=O)N2C)cc1 [CXCR4-DOTA-4 [Lu]] (cyclo([dTyr(3-I)][dNMeOrn]([4Abz-dA-dR-dDap-DOTA])R[2Nal]G)) ?
Output: 14.4 %ID/g

Input: Ok, now CN1C(=O)[C@@H](Cc2ccc(O)cc2)NC(=O)CNC(=O)[C@H](Cc2ccc3ccccc3c2)NC(=O)[C@H](CCCNC(=N)N)NC(=O)[C@H]1CCCNC(=O)c1ccc(CNC(=O)CN2CCN(CC(=O)O)CCN(CC(=O)O)CCN(CC(=O)O)CC2)cc1 [^68Ga-Pentixafor, metal not drawn, reference compound] (cyclo([dY][dNMeOrn]([4Amb-DOTA])R[2Nal]G))
Output: 2.75 %ID/g

Input: Also check C[C@@H](NC(=O)[C@@H](CCCNC(=N)N)NC(=O)[C@@H](CN)NC(=O)CN1CCN(CC(=O)O)CCN(CC(=O)O)CCN(CC(=O)O)CC1)C(=O)NCc1ccc(C(=O)NCCC[C@@H]2C(=O)N[C@@H](CCCNC(=N)N)C(=O)N[C@@H](Cc3ccc4ccccc4c3)C(=O)NCC(=O)N[C@H](Cc3ccc(O)cc3)C(=O)N2C)cc1 [CXCR4-DOTA-1 [Lu]] (cyclo([dY][dNMeOrn]([4Amb-dA-dR-dDap-DOTA])R[2Nal]G))
Output: 18.8 %ID/g

---

assay: Biodistribution in Jurkat tumor-bearing CB-17 SCID mice; format: in vivo; settings: female, CB-17 SCID, mouse, in vivo, iv, total radioactivity, % iD/g Spleen
Non-standard residues stand in square brackets, D forms with d. Residues, ends and D or L forms follow the SMILES beside them. Groups on a side chain read outwards from the residue. *: point of attachment. DOTA = O=C(O)CN1CCN(CC(=O)O)CCN(CC(=O)*)CCN(CC(=O)O)CC1; 2Nal = N[C@@H](Cc1ccc2ccccc2c1)C(=O)O; dNMeOrn = CN[C@H](CCCN)C(=O)O; HYNIC = NNc1ccc(C(=O)*)cn1; 4Amb = NCc1ccc(C(=O)O)cc1; 4Abz = Nc1ccc(C(=O)O)cc1; dDap = NC[C@@H](N)C(=O)O
measured-property: tissue uptake at 1 h

Some molecules with recorded tissue uptake at 1 h:
molecule: C[C@@H](NC(=O)[C@@H](CCCNC(=N)N)NC(=O)[C@@H](CN)NC(=O)CN1CCN(CC(=O)O)CCN(CC(=O)O)CCN(CC(=O)O)CC1)C(=O)Nc1ccc(C(=O)NCCC[C@@H]2C(=O)N[C@@H](CCCNC(=N)N)C(=O)N[C@@H](Cc3ccc4ccccc4c3)C(=O)NCC(=O)N[C@H](Cc3ccc(O)cc3)C(=O)N2C)cc1 [CXCR4-DOTA-3 [Lu]] (cyclo([dY][dNMeOrn]([4Abz-dA-dR-dDap-DOTA])R[2Nal]G))
measured-property: tissue uptake at 1 h
test-value: 1.55 %ID/g

molecule: C[C@@H](NC(=O)[C@@H](CCCNC(=N)N)NC(=O)[C@@H](CN)NC(=O)c1ccc(NN)nc1)C(=O)Nc1ccc(C(=O)NCCC[C@@H]2C(=O)N[C@@H](CCCNC(=N)N)C(=O)N[C@@H](Cc3ccc4ccccc4c3)C(=O)NCC(=O)N[C@H](Cc3ccc(O)cc3)C(=O)N2C)cc1 [Tc-CXCR4-13] (cyclo([dY][dNMeOrn]([4Abz-dA-dR-dDap-HYNIC])R[2Nal]G))
measured-property: tissue uptake at 1 h
test-value: 2.43 %ID/g

molecule: CN1C(=O)[C@@H](Cc2ccc(O)cc2)NC(=O)CNC(=O)[C@H](Cc2ccc3ccccc3c2)NC(=O)[C@H](CCCNC(=N)N)NC(=O)[C@H]1CCCNC(=O)c1ccc(CNC(=O)CN2CCN(CC(=O)O)CCN(CC(=O)O)CCN(CC(=O)O)CC2)cc1 [^68Ga-Pentixafor, metal not drawn, reference compound] (cyclo([dY][dNMeOrn]([4Amb-DOTA])R[2Nal]G))
measured-property: tissue uptake at 1 h
test-value: 1.48 %ID/g

Input: Item under review: C[C@@H](NC(=O)[C@@H](CCCNC(=N)N)NC(=O)[C@@H](CN)NC(=O)CCCCCNC(=O)[C@@H](CNC(=O)CN1CCN(CC(=O)O)CCN(CC(=O)O)CCN(CC(=O)O)CC1)NC(=O)CCCCC[N+]1=C(/C=C/C=C/C=C2/N(C)c3ccc(S(=O)(=O)O)cc3C2(C)C)C(C)(C)c2cc(S(=O)(=O)[O-])ccc21)C(=O)Nc1ccc(C(=O)NCCC[C@@H]2C(=O)N[C@@H](CCCNC(=N)N)C(=O)N[C@@H](Cc3ccc4ccccc4c3)C(=O)NCC(=O)N[C@H](Cc3ccc(O)cc3)C(=O)N2C)cc1 [[^natLu]CXCR4-OI-3, metal not drawn] . Reported tissue uptake at 1 h?
Output: 5.94 %ID/g

---

assay: Biodistribution in Daudi xenograft bearing CB-17 SCID mice; format: in vivo; details: mouse, iv, total radioactivity, Pancreas, 1 h p.i., CB-17 SCID female mice, read-out: % iD/g Pancreas
Positions of bridges follow the written chain, without caps; N, C: chain ends. Non-standard residues stand in square brackets, D forms with d. Residues, ends and D or L forms follow the SMILES beside them. Chains are numbered I, II in the order given. *: point of attachment. 2Nal = N[C@@H](Cc1ccc2ccccc2c1)C(=O)O; dNMeOrn = CN[C@H](CCCN)C(=O)O; Mercaptoacetyl = O=C(CS)*; 4Abz = Nc1ccc(C(=O)O)cc1
measured-property: tissue uptake at 1 h (%ID/g)
The response must be a number in %ID/g with no trailing unit.

Input: Need tissue uptake at 1 h, item C[C@@H](NC(=O)[C@@H](CCCNC(=N)N)NC(=O)[C@@H](CO)NC(=O)[C@@H](CO)NC(=O)[C@@H](CO)NC(=O)CS)C(=O)Nc1ccc(C(=O)NCCC[C@@H]2C(=O)N[C@@H](CCCNC(=N)N)C(=O)N[C@@H](Cc3ccc4ccccc4c3)C(=O)NCC(=O)N[C@H](Cc3ccc(O)cc3)C(=O)N2C)cc1 [Tc-CXCR4-1] (I: Mercaptoacetyl-[dS][dS][dS][dR][dA][4Abz] / II: cyclo([dY][dNMeOrn]R[2Nal]G); amide I:C-II:2)
Output: 0.22
